Tested on: Nucleic Acid
Assay: Thermal stabilization of HIV TAR RNA assessed as change in melting temperature at 1:1 ligand to RNA ratio by UV-vis spectrophotometric analysis
Type: nucleic-acid assay
Settings: Human immunodeficiency virus
METRIC NAME: ΔTm (°C)
Lab book: enter the figure in °C, no units written.

STRUCTURE NOTATION | ΔTm, °C
CN1CCN(c2ccc3nc(-c4ccc(OCc5cn(CCCCCn6cc(CCCCc7cn(C[C@H]8O[C@@H](O[C@@H]9[C@@H](O)[C@H](N)C[C@H](N)[C@H]9O[C@H]9O[C@H](CN)[C@@H](O)[C@H](O)[C@H]9N)[C@H](O)[C@@H]8O[C@H]8O[C@@H](CN)[C@@H](O)[C@H](O)[C@H]8N)nn7)nn6)nn5)cc4)[nH]c3c2)CC1 | 2.1
NC[C@@H]1O[C@H](O[C@H]2[C@@H](O)[C@H](O[C@@H]3[C@@H](O)[C@H](N)C[C@H](N)[C@H]3O[C@H]3O[C@H](CN)[C@@H](O)[C@H](O)[C@H]3N)O[C@@H]2CO)[C@H](N)[C@@H](O)[C@@H]1O | 2

Query: ΔTm; subject: CN1CCN(c2ccc3nc(-c4ccc(OCc5cn(CCCCCCCCCCn6cc(CCCCc7cn(C[C@H]8O[C@@H](O[C@@H]9[C@@H](O)[C@H](N)C[C@H](N)[C@H]9O[C@H]9O[C@H](CN)[C@@H](O)[C@H](O)[C@H]9N)[C@H](O)[C@@H]8O[C@H]8O[C@@H](CN)[C@@H](O)[C@H](O)[C@H]8N)nn7)nn6)nn5)cc4)[nH]c3c2)CC1 4

Also, CN1CCN(c2ccc3nc(-c4ccc(OCCn5cc(CCCc6cn(C[C@H]7O[C@@H](O[C@@H]8[C@@H](O)[C@H](N)C[C@H](N)[C@H]8O[C@H]8O[C@H](CN)[C@@H](O)[C@H](O)[C@H]8N)[C@H](O)[C@@H]7O[C@H]7O[C@@H](CN)[C@@H](O)[C@H](O)[C@H]7N)nn6)nn5)cc4)[nH]c3c2)CC1 please. 4.1

Also, CN1CCN(c2ccc3nc(-c4ccc(OCCn5cc(-c6ccc(-c7cn(C[C@H]8O[C@@H](O[C@@H]9[C@@H](O)[C@H](N)C[C@H](N)[C@H]9O[C@H]9O[C@H](CN)[C@@H](O)[C@H](O)[C@H]9N)[C@H](O)[C@@H]8O[C@H]8O[C@@H](CN)[C@@H](O)[C@H](O)[C@H]8N)nn7)cc6)nn5)cc4)[nH]c3c2)CC1 please. 3
